IC50 reference
- subject-of-test: recombinant human NAE enzyme (Homo sapiens)
- Construct: His (N); made in house; host or cells: Sf9 insect cells (baculovirus, Bac-to-Bac)
- Sequence (Q8TBC4 whole entry): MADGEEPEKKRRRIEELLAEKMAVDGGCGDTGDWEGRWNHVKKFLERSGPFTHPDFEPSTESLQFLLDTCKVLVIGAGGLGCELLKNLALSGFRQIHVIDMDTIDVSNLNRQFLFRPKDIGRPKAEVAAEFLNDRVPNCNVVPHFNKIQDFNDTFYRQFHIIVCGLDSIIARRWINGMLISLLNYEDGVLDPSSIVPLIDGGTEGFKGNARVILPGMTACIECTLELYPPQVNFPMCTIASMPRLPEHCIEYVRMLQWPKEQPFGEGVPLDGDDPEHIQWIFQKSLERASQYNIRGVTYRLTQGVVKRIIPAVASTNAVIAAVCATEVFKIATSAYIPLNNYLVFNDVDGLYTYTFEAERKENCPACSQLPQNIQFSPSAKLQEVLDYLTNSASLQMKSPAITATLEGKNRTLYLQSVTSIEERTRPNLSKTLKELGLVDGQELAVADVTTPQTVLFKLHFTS
- Sequence (Q13564 whole entry partner): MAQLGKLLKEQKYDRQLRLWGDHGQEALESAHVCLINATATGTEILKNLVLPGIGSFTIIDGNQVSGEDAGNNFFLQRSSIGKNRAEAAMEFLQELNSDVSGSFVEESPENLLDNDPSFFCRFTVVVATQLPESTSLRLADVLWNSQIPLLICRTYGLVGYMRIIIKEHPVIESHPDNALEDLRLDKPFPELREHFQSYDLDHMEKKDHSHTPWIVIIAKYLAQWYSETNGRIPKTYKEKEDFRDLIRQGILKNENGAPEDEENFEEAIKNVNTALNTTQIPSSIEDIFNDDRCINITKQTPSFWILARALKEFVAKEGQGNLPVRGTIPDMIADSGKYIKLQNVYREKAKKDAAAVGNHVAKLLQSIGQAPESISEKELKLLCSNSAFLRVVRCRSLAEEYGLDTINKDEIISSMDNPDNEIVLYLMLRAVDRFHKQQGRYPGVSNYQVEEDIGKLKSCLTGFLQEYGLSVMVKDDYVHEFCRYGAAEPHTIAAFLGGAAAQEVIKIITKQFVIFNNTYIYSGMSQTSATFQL
- method-description: Nedd8-Activating Enzyme (NAE) HTRF Assay
- Format: biochemical
- assay-conditions: 20 μM ATP, bound given in nM

IC50 in this record for NS(=O)(=O)OC[C@@H]1C[C@@H](Oc2cc(Cc3ccccc3)ncn2)C[C@@H]1O : > 500 nM

Lab note: measured IC50 of NS(=O)(=O)OC[C@@H]1C[C@@H](Oc2ncnc3[nH]c(-c4ccccc4)nc23)C[C@@H]1O was ≤ 500 nM

New cases:
Lookup result for NS(=O)(=O)OC[C@@H]1C[C@@H](Nc2ncnc3[nH]c(-c4ccccc4)nc23)C[C@@H]1O ; measured IC50: ≤ 500 nM

Value of measured IC50 for the entry CC1(C)C[C@H](Nc2ncnc(N[C@@H]3C[C@@H](COS(N)(=O)=O)[C@@H](O)C3)n2)c2ccccc21 : ≤ 500 nM

Looking up NS(=O)(=O)OC[C@@H]1C[C@@H](Oc2ncnc3nc(-c4c[nH]c5ccccc45)[nH]c23)C[C@@H]1O , I see its IC50 listed as ≤ 500 nM

Summary for this compound, NS(=O)(=O)OC[C@@H]1C[C@@H](Cc2cc(N[C@H]3CCc4ccccc43)ncn2)C[C@@H]1O : IC50 is > 500 nM

Lab note: measured IC50 of CO[C@@H]1CC(C)(C)c2ccccc2[C@@H]1Nc1cc(O[C@@H]2C[C@@H](COS(N)(=O)=O)[C@@H](O)C2)ncn1 was ≤ 500 nM
